These data points were gathered from PubChem BioAssay AID1918940.

system: NCI-H211 complex spheroid viability; assay: Anticancer human tumor NCI-H211 cell line growth inhibition [LSD1]; conditions: curve of first compound; second compound 1 µM;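 further: luminescent viability read after seven days of drug exposure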
For each of the compounds below, state its IC50.

# Compound, Target system, IC50
data = [
    ("NS(=O)(=O)OCC1CC(n2ccc3c(NC4CCc5ccccc54)ncnc32)CC1O (configuration not stated) + NC1CC1c1ccc(-c2cccc(O)c2)cc1", "NCI-H211 complex spheroid viability", "< 9.49 nM"),
    ("CCN(c1cc(-c2ccc(CN3CCOCC3)cc2)cc(C(=O)NCc2c(C)cc(C)[nH]c2=O)c1C)C1CCOCC1 + NC1CCC(NC2CC2c2ccccc2)CC1", "NCI-H211 complex spheroid viability", "> 3000 nM"),
    ("CC1COCCN1c1cc(-c2ccnn2C)c2ccnc(-c3ccn[nH]3)c2n1 (configuration not stated) + NC1CC1c1ccc(-c2cccc(O)c2)cc1", "NCI-H211 complex spheroid viability", "< 3.16 nM"),
    ("CCc1c2c(nc3ccc(O)cc13)-c1cc3c(c(=O)n1C2)COC(=O)[C@]3(O)CC + NC1CC1c1ccc(-c2cccc(O)c2)cc1", "NCI-H211 complex spheroid viability", "< 0.949 nM"),
    ("CC1(C)CCC(CN2CCN(c3ccc(C(=O)NS(=O)(=O)c4ccc(NCC5CCOCC5)c([N+](=O)[O-])c4)c(Oc4cnc5[nH]ccc5c4)c3)CC2)=C(c2ccc(Cl)cc2)C1 + NC1CC1c1ccc(-c2cccc(O)c2)cc1", "NCI-H211 complex spheroid viability", "< 31.6 nM"),
]

Items follow; give IC50 for each.
1. COc1cc(Nc2ncc3c(n2)-c2ccc(Cl)cc2C(c2c(F)cccc2OC)=NC3)ccc1C(=O)O + NC1CC1c1ccc(-c2cccc(O)c2)cc1
2. Nc1ncn(C2CC(O)C(CO)S2)c(=O)n1 (configuration not stated) + NC1CC1c1ccc(-c2cccc(O)c2)cc1

< 3.16 nM
< 0.949 nM

* * *

tested on: NCI-H211 complex spheroid viability; assay: Anticancer human tumor NCI-H211 cell line growth inhibition [LSD1]; conditions: curve of first compound; second compound 1 µM;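 further: luminescent viability read after seven days of drug exposure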
For each of the molecules below, state its IC50.

Here is how some molecules turned out for IC50.
# Molecule, IC50
measured = [
    ("COc1cc(C2c3cc4c(cc3C(OC3OC5COC(C)OC5C(O)C3O)C3COC(=O)C23)OCO4)cc(OC)c1O (stereo not given) + NC1CC1c1ccc(-c2cccc(O)c2)cc1", "< 9.49 nM"),
    ("Nc1ncn(C2CC(O)C(CO)O2)c(=O)n1 (stereo not given) + NC1CCC(NC2CC2c2ccccc2)CC1", "< 3.16 nM"),
    ("O=C(C=Cc1cccc(S(=O)(=O)Nc2ccccc2)c1)NO + NC1CC1c1ccc(-c2cccc(O)c2)cc1", "< 9.49 nM"),
    ("Nc1ccn(C2OC(CO)C(O)C2(F)F)c(=O)n1 (stereo not given) + NC1CCC(NC2CC2c2ccccc2)CC1", "< 0.949 nM"),
]

Recorded IC50 of O=C(C=Cn1cnc(-c2cc(C(F)(F)F)cc(C(F)(F)F)c2)n1)NNc1cnccn1 + NC1CC1c1ccc(-c2cccc(O)c2)cc1 , please.
< 3.16 nM

* * *

tested on: NCI-H211 complex spheroid viability; test: Anticancer human tumor NCI-H211 cell line growth inhibition [LSD1]; settings: second compound 1 µM; first compound 1 µM; stronger effect = lower value;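 further: luminescent viability read after seven days of drug exposure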;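 on viability, T/C: 100% = DMSO vehicle control viability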
For each of the compounds below, state its viability, T/C.
Answers are plain numbers, in %.

Here is how some compounds turned out for viability, T/C.
# Compound, Units of measure, viability, T/C
data = [
    ("COc1ccc([C@@H](O)c2cc(-c3ncnc4cc(N5CCOCC5)ccc34)c(F)cc2Cl)nn1 + NC1CC1c1ccc(-c2cccc(O)c2)cc1", "%", 76.8),
    ("Nc1ncn(C2CC(O)C(CO)O2)c(=O)n1 (centres undefined) + NC1CCC(NC2CC2c2ccccc2)CC1", "%", 1.32),
    ("CC1COCCN1c1cc(-c2ccnn2C)c2ccnc(-c3ccn[nH]3)c2n1 (centres undefined) + NC1CC1c1ccc(-c2cccc(O)c2)cc1", "%", 4.1),
    ("CC1COCCN1c1cc(C2(S(C)(=N)=O)CC2)nc(-c2ccnc3[nH]ccc23)n1 (centres undefined) + NC1CC1c1ccc(-c2cccc(O)c2)cc1", "%", 15),
    ("O=C(C=Cn1cnc(-c2cc(C(F)(F)F)cc(C(F)(F)F)c2)n1)NNc1cnccn1 + NC1CCC(NC2CC2c2ccccc2)CC1", "%", 1.5),
]

Items follow; give viability, T/C for each.
1. CC(C)c1c(-c2ccccc2)nc2c(C#N)c[nH]n2c1=O + NC1CC1c1ccc(-c2cccc(O)c2)cc1
2. CC(C)c1c(-c2ccccc2)nc2c(C#N)c[nH]n2c1=O + NC1CCC(NC2CC2c2ccccc2)CC1
3. COc1cc(Nc2ncc3c(n2)-c2ccc(Cl)cc2C(c2c(F)cccc2OC)=NC3)ccc1C(=O)O + NC1CCC(NC2CC2c2ccccc2)CC1

[69.8, 60.5, 1.94]

Recorded viability, T/C of COc1cc(Nc2ncc3c(n2)-c2ccc(Cl)cc2C(c2c(F)cccc2OC)=NC3)ccc1C(=O)O + NC1CC1c1ccc(-c2cccc(O)c2)cc1 , please.
3.95
